test_name: Pharmacokinetic analyses, oral once daily for 10 days
measurement_parameters: male, C57BL/6J, mouse, plasma, oral, 5 mg/kg, DF-003 Conc. in plasma, 5 mg/kg; 0.5 hours after 10th dosing; individual animals

# molecule, concentration at 0.5 h
records = [
    ("C#C[C@@](C)(c1ccc(Cl)cc1)c1csc(NC(=O)c2c(F)cc(N3CCNCC3)cc2F)n1 (stereo in doubt) [DF-003]", "168 ng/mL"),
]

----------
test_name: Pharmacokinetic analyses, oral once daily for 10 days
measurement_parameters: male, C57BL/6J, mouse, plasma, oral, 5 mg/kg, DF-003 Conc. in plasma, 5 mg/kg; 0 hours after 10th dosing; individual animals

# compound, concentration at 0 h (ng/mL)
records = [
    ("C#C[C@@](C)(c1ccc(Cl)cc1)c1csc(NC(=O)c2c(F)cc(N3CCNCC3)cc2F)n1 (stereo in doubt)", 142),
]

----------
test_name: Pharmacokinetic analyses, oral once daily for 10 days
measurement_parameters: male, C57BL/6J, mouse, plasma, oral, 5 mg/kg, DF-003 Conc. in plasma, 5 mg/kg; 2 hours after 10th dosing; individual animals

# compound, concentration at 2 h
rows = [
    ("C#C[C@@](C)(c1ccc(Cl)cc1)c1csc(NC(=O)c2c(F)cc(N3CCNCC3)cc2F)n1 (stereo in doubt)", "218 ng/mL"),
]

----------
experimental_system: ALPK1 (Homo sapiens)
Sequence (Q96QP1 whole entry): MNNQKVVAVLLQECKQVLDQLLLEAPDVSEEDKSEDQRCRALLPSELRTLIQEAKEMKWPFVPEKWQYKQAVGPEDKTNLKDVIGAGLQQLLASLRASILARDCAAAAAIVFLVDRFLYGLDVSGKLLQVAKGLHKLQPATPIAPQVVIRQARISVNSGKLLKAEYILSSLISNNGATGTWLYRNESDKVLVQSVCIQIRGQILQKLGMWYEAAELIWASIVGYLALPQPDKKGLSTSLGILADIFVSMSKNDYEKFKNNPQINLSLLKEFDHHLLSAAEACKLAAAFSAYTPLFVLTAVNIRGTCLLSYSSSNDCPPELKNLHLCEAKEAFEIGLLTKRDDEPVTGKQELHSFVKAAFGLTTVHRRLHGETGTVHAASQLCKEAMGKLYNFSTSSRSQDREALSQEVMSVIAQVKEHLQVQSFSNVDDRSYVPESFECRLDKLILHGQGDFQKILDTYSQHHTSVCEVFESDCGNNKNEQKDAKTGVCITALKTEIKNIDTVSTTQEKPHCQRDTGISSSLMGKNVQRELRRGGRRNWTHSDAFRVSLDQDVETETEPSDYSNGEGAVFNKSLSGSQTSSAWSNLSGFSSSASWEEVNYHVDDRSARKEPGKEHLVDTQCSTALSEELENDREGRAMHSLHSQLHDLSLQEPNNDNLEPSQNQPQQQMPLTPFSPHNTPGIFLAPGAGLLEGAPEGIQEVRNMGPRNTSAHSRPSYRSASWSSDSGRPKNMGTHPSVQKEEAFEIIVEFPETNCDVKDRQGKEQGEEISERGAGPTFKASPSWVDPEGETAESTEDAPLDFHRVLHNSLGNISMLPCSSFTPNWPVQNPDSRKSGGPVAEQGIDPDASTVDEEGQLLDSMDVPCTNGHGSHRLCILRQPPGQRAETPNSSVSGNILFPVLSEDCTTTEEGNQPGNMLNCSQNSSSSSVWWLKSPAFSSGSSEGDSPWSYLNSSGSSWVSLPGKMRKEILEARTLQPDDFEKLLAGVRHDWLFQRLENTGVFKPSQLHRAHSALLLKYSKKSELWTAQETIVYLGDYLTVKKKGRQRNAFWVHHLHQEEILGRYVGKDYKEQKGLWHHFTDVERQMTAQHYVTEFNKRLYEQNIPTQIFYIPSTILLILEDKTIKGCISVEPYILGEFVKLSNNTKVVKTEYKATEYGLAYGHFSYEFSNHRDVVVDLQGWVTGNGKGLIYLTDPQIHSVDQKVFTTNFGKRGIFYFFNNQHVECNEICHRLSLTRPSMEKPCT
test_name: TR-FRET (HTRF) kinase assay
measurement_parameters: read-out: HTRF Assay (IC50); 6.25 µM ATP, 20 nM ADP-D-heptose
Below, each entry is listed alongside its reported IC50.

# compound, display_unit, IC50
measured = [
    ("O=C(Nc1nc(Cc2ccccn2)cs1)c1c(F)cc(N2CCNCC2)cc1F", "nM", 1270),
    ("COc1cccc2sc(NC(=O)c3c(F)cc(OCCO)cc3F)nc12", "nM", 560),
    ("C#CC(C)(c1ccc(OC(F)F)cc1)c1csc(NC(=O)c2c(F)cc(N3CCNCC3)cc2F)n1 (centres unmarked)", "nM", 73),
    ("C#CC(C)(c1ccc(C)cc1)c1csc(NC(=O)c2c(F)cc(N3CCNCC3)cc2F)n1 (centres unmarked)", "nM", 13),
    ("C#CC(CC)(c1ccc(Br)cc1)c1csc(NC(=O)NCCO)n1 (centres unmarked)", "nM", 886),
    ("C#CC(C)(c1ccc(Cl)c(F)c1)c1csc(NC(=O)c2c(F)cc(N3CCNCC3)cc2F)n1 (centres unmarked)", "nM", 17),
    ("O=C(NCc1ccccc1)Nc1nc(C2(c3ccccc3)CCCC2)cs1", "nM", 5000),
    ("C#CC(C)(c1ccc(Cl)cc1)c1csc(NC(=O)c2c(F)cc(N3CCNCC3CC)cc2F)n1 (centres unmarked)", "nM", 70),
]

----------
experimental_system: ALPK1 (Homo sapiens)
test_name: TR-FRET (HTRF) kinase assay
measurement_parameters: read-out: HTRF Assay (IC50); 6.25 µM ATP, 20 nM ADP-D-heptose
Reported IC50 values are given for each entry in this list.

# compound, IC50, nM
rows = [
    ("Cc1cc(CNC(=O)Nc2nc(C(C)(C)c3ccc(Br)cc3)cs2)ccc1N1CCNCC1", 462),
    ("COc1cccc2sc(NC(=O)c3c(F)cc(N4CCC(CO)CC4)cc3F)nc12", 2280),
    ("C#CC(C)(c1ccc(Cl)cc1)c1csc(NC(=O)c2ccc(N3CCNCC3)cc2F)n1 (centres unmarked)", 151),
    ("CC(C)(c1ccc(O)cc1)c1csc(NC(=O)NCc2ccc(N3CCNCC3)cc2)n1", 732),
    ("CC(C)(c1ccc(OC(F)(F)F)cc1)c1csc(NC(=O)NCc2ccc(N3CCNCC3)cc2)n1", 1130),
    ("C#CC(C)(c1ccc(Cl)cc1)c1csc(NC(N)=O)n1 (centres unmarked)", 48),
    ("COc1ccc(C(C)(C)c2csc(NC(=O)NCc3ccc(N4CCNCC4)c(F)c3)n2)cc1", 84),
    ("CC(C)(c1ccccc1)c1csc(NC(=O)NCc2ccccc2)n1 [Compound 3]", 2100),
    ("CC(c1ccc(Br)cc1)c1csc(NC(=O)NCc2ccc(N3CCNCC3)cc2)n1 (centres unmarked)", 391),
    ("CC(C)(c1ccc(F)cc1)c1csc(NC(=O)NCc2ccc(N3CCNCC3)cc2)n1", 915),
    ("C#CC(C)(c1ccc(Cl)cc1)c1csc(NC(=O)c2c(Cl)cc(N3CCNCC3)cc2Cl)n1 (centres unmarked)", 312),
    ("COc1ccccc1CNC(=O)Nc1nc(C(C)(C)c2ccccc2)cs1", 2200),
    ("C#CC(C)(c1ccc(Br)cc1)c1csc(NC(=O)NCCO)n1 (centres unmarked)", 71),
    ("COc1cccc2sc(NC(=O)c3c(F)cc(N4CCN(Cc5ccccc5)C(=O)C4)cc3F)nc12", 321),
    ("CCC(C)(c1ccc(Br)cc1)c1csc(NC(=O)NCc2ccc(N3CCNCC3)cc2)n1 (centres unmarked)", 429),
    ("CC(C)(c1ccc(Cl)cc1)c1csc(NC(=O)NCc2ccc(N3CCNCC3)cc2)n1", 44),
    ("C#CC(C)(c1ccc(Cl)cc1)c1csc(NC(=O)c2c(F)cc(N3CCNCC3CO)cc2F)n1 (centres unmarked)", 20),
    ("CC(C)(c1ccc(C2CC2)cc1)c1csc(NC(=O)NCc2ccc(N3CCNCC3)cc2)n1", 155),
    ("CC(C)(c1ccc(C#N)cc1)c1csc(NC(=O)NCc2ccc(N3CCNCC3)cc2)n1", 236),
    ("CC(C)(c1ccc(Br)cc1)c1csc(NC(=O)NCc2ccc(N3CCNCC3)c(F)c2)n1", 138),
    ("CC(C)(c1ccccc1)c1csc(NC(=O)NCc2ccccc2)n1 [Compound 2]", 2500),
    ("COCCNC(=O)Nc1nc(C(C)(C)c2ccc(Br)cc2)cs1", 1130),
    ("O=C(Nc1nc(C2(c3ccc(Br)cc3)CCCC2)cs1)c1c(F)cc(N2CCNCC2)cc1F", 437),
]
